Target: T1, cynomolgus monkey CD73 (on transfected CHOK1 cells) (cynomolgus monkey, UniProt A0A2K5V5U7 27-549)
T1 construct: whole, on cells; also called CHOK1-cCD73; CHOK1-CCD73
T1 sequence: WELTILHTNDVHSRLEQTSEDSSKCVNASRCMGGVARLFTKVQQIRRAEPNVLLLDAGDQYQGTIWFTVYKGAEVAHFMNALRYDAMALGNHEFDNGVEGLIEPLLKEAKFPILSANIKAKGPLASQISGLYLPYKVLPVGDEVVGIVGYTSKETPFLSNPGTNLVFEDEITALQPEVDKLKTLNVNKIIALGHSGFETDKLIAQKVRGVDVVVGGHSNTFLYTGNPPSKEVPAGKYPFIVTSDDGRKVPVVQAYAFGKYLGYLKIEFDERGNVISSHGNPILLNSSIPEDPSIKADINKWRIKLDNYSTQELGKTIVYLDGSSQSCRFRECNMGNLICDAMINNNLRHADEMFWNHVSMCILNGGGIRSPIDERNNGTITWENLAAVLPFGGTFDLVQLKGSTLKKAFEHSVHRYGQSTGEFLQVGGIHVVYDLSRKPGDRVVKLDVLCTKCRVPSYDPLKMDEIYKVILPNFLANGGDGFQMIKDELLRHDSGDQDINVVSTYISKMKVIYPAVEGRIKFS
Assay: FACS on CHOK1-cCD73 cells
recordedEndpoint: pEC50
Answers are plain numbers, as −log10 of the molar value.

[[record]]
binder = "mab041xhIgG1TM (clone 71E10B3), mouse-human chimeric anti-CD73 antibody (antibody, V domains shown, also called mAb041 chimeric antibody) VH: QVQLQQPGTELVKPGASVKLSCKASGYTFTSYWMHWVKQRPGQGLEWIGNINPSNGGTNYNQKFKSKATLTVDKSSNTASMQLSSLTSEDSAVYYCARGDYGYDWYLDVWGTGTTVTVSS VL: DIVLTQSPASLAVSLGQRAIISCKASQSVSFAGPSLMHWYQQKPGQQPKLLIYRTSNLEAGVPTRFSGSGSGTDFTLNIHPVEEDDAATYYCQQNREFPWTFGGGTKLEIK"
quantitativeresult = 8.70


Turning now to a further binder:
[ask] Requested field: pEC50. Item: mab065xhIgG1TM (clone 125A4E10), mouse-human chimeric anti-CD73 antibody (antibody, V domains shown, also called mAb065 chimeric antibody) VH: EVQLQQSGPELVKPGASVKISCKASGYTFTDYYMNWVKQSHGKSLEWIGNINPNNGDTNYNQKFKGKATLTVDKSSSTASMELRSLTSEDSAVYYCANSGYYYFDYWGQGTTLTVSS VL: DIVMTQSPSSLTVTAGEKVTMSCKSSQSLLNSGNQKNYLTWYQQKPGQPPKVLIYWASTRESGVPDRFTGSGSGTDFTLTISSVQAEDLAVYYCQNDYSYPPTFGGGTNLEIK
[reply] 8.44
